# study-target: UniProt:P00533
# Sequence (P00533 25-1210): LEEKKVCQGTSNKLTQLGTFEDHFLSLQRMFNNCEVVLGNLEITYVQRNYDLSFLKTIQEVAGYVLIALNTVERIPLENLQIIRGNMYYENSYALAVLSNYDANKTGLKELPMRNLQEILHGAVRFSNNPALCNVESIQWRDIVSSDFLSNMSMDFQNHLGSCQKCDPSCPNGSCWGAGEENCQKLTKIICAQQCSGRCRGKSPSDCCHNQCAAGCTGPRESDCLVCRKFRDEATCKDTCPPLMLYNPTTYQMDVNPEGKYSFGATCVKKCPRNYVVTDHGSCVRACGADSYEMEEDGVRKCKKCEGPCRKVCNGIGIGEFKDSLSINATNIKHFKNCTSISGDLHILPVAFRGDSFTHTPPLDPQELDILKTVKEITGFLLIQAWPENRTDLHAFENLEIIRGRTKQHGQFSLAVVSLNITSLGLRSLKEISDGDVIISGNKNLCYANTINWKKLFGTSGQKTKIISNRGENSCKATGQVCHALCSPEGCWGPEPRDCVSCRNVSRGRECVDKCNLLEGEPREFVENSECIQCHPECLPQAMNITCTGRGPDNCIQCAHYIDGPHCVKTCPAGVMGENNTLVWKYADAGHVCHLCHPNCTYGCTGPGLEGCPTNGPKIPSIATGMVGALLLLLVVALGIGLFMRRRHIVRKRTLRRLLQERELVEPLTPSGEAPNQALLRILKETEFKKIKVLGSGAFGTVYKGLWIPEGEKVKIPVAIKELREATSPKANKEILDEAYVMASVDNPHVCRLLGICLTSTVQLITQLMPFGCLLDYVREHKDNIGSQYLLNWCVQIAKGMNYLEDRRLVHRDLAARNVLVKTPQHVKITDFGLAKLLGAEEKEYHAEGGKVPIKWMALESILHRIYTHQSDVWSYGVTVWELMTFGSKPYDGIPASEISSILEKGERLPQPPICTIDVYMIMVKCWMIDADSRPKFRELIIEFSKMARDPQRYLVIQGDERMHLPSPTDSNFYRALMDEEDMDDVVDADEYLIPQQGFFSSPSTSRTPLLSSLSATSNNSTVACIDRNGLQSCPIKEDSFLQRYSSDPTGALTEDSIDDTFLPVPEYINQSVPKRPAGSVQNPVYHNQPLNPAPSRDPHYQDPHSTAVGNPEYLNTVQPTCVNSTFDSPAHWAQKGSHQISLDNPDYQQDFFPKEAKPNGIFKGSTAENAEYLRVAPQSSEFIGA
# method-notes: ErbB Enzyme Assay (HTRF KinEASE-TK), Assay 3
# Assay type: biochemical
# measurement-context: EGFR enzyme assay
For each entry below, report its IC50 value.
// note: answer is a bare numeric in nM

Lab note: C=CC(=O)N1CCC12CN(c1ccc3ncnc(Nc4cc(C)c(Oc5ccn6ncnc6c5)cc4F)c3n1)C2 gave IC50 of 908

Lab note: C=CC(=O)N1CC[C@H]2C[C@H](c3ccc4ncnc(Nc5ccc(Oc6ccn7ncnc7c6)c(C)c5)c4n3)C[C@H]21 gave IC50 of 979

Lab note: C=CC(=O)N1C[C@@H](c2ccc3ncnc(Nc4ccc(Oc5ccn6ncnc6c5)c(C)c4F)c3n2)C[C@@H]1C (mixture of isomers) gave IC50 of 848
